Where do these numbers come from? They come from ChEMBL document CHEMBL5550201.

Exercise: for every item that follows, state its recorded Activity.
Target: von Hippel-Lindau disease tumor suppressor/Ubiquitin carboxyl-terminal hydrolase 7 (Homo sapiens, UniProt Q93009+P40337)
Sequence (P40337 whole entry, looked up): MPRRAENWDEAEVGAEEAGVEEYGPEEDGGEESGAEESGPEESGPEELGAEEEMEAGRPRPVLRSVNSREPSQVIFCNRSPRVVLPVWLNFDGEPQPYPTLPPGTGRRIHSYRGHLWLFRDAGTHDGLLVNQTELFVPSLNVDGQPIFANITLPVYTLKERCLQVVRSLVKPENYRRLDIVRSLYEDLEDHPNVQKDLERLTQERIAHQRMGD
Sequence (Q93009 whole entry, looked up): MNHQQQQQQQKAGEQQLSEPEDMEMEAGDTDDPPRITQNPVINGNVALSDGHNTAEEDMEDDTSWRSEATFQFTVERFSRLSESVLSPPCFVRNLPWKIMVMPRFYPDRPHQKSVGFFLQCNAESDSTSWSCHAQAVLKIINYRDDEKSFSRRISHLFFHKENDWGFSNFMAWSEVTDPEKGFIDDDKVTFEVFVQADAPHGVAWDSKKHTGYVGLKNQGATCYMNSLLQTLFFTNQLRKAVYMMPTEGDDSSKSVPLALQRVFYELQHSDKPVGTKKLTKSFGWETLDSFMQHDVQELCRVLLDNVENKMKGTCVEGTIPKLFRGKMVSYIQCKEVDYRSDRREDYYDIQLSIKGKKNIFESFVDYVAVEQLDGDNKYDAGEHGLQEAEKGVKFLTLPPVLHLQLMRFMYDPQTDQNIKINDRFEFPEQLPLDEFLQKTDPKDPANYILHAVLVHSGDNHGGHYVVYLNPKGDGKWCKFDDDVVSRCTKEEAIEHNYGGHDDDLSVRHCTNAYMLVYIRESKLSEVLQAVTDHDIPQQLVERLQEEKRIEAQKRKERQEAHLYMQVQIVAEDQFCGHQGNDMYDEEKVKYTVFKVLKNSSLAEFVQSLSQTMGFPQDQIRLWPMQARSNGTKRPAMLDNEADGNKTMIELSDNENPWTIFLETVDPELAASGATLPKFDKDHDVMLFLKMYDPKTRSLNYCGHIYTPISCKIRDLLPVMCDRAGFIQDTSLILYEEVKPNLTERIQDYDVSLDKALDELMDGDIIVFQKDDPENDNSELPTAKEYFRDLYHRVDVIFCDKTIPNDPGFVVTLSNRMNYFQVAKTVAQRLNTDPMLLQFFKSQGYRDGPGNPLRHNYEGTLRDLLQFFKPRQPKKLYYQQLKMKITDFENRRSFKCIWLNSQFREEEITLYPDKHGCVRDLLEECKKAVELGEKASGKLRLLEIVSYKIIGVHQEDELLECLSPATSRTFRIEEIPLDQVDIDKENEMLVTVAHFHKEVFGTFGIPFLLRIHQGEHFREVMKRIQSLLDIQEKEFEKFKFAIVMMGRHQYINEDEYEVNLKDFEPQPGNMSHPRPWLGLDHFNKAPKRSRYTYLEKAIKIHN
Experiment: PROTACT activity at USP7/VHL in human RS4;11 cells assessed as protein degradation at 100 nM measured after 24 hrs by Western blot analysis relative to control
Format: cell-based
Response body: numeric value in %, unit text excluded.

Name the recorded Activity for `Cc1ncsc1-c1ccc([C@H](C)NC(=O)[C@@H]2C[C@@H](O)CN2C(=O)[C@@H](c2cc(N3CCC(CN4CC(NCc5ccc(-c6c7ncn(CC8(O)CCN(C(=O)C[C@@H](C)c9ccccc9)CC8)c(=O)c7nn6C)cc5)C4)CC3)no2)C(C)C)cc1` . 60.2

Similarly, `Cc1ncsc1-c1ccc([C@H](C)NC(=O)[C@@H]2C[C@@H](O)CN2C(=O)[C@@H](NC(=O)CCOCCOCCOCCNCc2ccc(-c3c4ncn(CC5(O)CCN(C(=O)C[C@@H](C)c6ccccc6)CC5)c(=O)c4nn3C)cc2)C(C)(C)C)cc1` ? 33.6

Similarly, `Cc1ncsc1-c1ccc([C@H](C)NC(=O)[C@@H]2C[C@@H](O)CN2C(=O)[C@@H](c2cc(N3CCN(Cc4ccc(-c5c6ncn(CC7(O)CCN(C(=O)C[C@@H](C)c8ccccc8)CC7)c(=O)c6nn5C)cc4)CC3)no2)C(C)C)cc1` ? 91.7

Similarly, `Cc1ncsc1-c1ccc([C@H](C)NC(=O)[C@@H]2C[C@@H](O)CN2C(=O)[C@@H](c2cc(N3CCC(CN4CC(CNCc5ccc(-c6c7ncn(CC8(O)CCN(C(=O)C[C@@H](C)c9ccccc9)CC8)c(=O)c7nn6C)cc5)C4)CC3)no2)C(C)C)cc1` ? 55.1

Similarly, `Cc1ncsc1-c1ccc([C@H](C)NC(=O)[C@@H]2C[C@@H](O)CN2C(=O)[C@@H](c2cc(N3CCC(CN4CCC(NCc5ccc(-c6c7ncn(CC8(O)CCN(C(=O)C[C@@H](C)c9ccccc9)CC8)c(=O)c7nn6C)cc5)CC4)CC3)no2)C(C)C)cc1` ? 37.7

###

Test system: REH
Assay: Antiproliferative activity against human REH cells with wild type p53 assessed as cell viability measured after 3 days by PMS-MTS assay
Assay type: functional, cell-based
Conditions: 72 h
Exercise: for every item that follows, state its recorded IC50.
Write the numeric value and follow it with the unit.

Notebook entry, REH assay: IC50 of `Cc1ncsc1-c1ccc([C@H](C)NC(=O)[C@@H]2C[C@@H](O)CN2C(=O)[C@@H](c2cc(N3CCN(Cc4ccc(-c5c6ncn(CC7(O)CCN(C(=O)C[C@@H](C)c8ccccc8)CC7)c(=O)c6nn5C)cc4)CC3)no2)C(C)C)cc1` = ? 8.3 nM

Similarly, `Cc1ncsc1-c1ccc([C@H](C)NC(=O)[C@@H]2C[C@H](O)CN2C(=O)[C@@H](c2cc(N3CCN(Cc4ccc(-c5c6ncn(CC7(O)CCN(C(=O)C[C@@H](C)c8ccccc8)CC7)c(=O)c6nn5C)cc4)CC3)no2)C(C)C)cc1` ? 7390 nM

Similarly, `C[C@H](CC(=O)N1CCC(O)(Cn2cnc3c(-c4ccc(CN)cc4)n(C)nc3c2=O)CC1)c1ccccc1` ? 20.3 nM

###

Exercise: for every item that follows, state its recorded Activity.
Target: von Hippel-Lindau disease tumor suppressor/Ubiquitin carboxyl-terminal hydrolase 7 (Homo sapiens, UniProt Q93009+P40337)
Assay: PROTACT activity at USP7/VHL in human RS4;11 cells assessed as protein degradation at 10 nM measured after 24 hrs by Western blot analysis relative to control
Format: cell-based
Response body: numeric value in %, unit text excluded.

Name the recorded Activity for `Cc1ncsc1-c1ccc([C@H](C)NC(=O)[C@@H]2C[C@@H](O)CN2C(=O)[C@@H](c2cc(N3CCC(N4CC(CNCc5ccc(-c6c7ncn(CC8(O)CCN(C(=O)C[C@@H](C)c9ccccc9)CC8)c(=O)c7nn6C)cc5)C4)CC3)no2)C(C)C)cc1` . 15.5

Similarly, `Cc1ncsc1-c1ccc([C@H](C)NC(=O)[C@@H]2C[C@@H](O)CN2C(=O)[C@@H](NC(=O)CCCCCNCc2ccc(-c3c4ncn(CC5(O)CCN(C(=O)C[C@@H](C)c6ccccc6)CC5)c(=O)c4nn3C)cc2)C(C)(C)C)cc1` ? 38

Similarly, `Cc1ncsc1-c1ccc([C@H](C)NC(=O)[C@@H]2C[C@@H](O)CN2C(=O)[C@@H](c2cc(N3CCC(N4CC(NCc5ccc(-c6c7ncn(CC8(O)CCN(C(=O)C[C@@H](C)c9ccccc9)CC8)c(=O)c7nn6C)cc5)C4)CC3)no2)C(C)C)cc1` ? 16

Similarly, `Cc1ncsc1-c1ccc([C@H](C)NC(=O)[C@@H]2C[C@@H](O)CN2C(=O)[C@@H](c2cc(N3CCC(CN4CC(NCc5ccc(-c6c7ncn(CC8(O)CCN(C(=O)C[C@@H](C)c9ccccc9)CC8)c(=O)c7nn6C)cc5)C4)CC3)no2)C(C)C)cc1` ? 0.4

Similarly, `Cc1ncsc1-c1ccc([C@H](C)NC(=O)[C@@H]2C[C@@H](O)CN2C(=O)[C@@H](c2cc(N3CCC(CN4CC(CNCc5ccc(-c6c7ncn(CC8(O)CCN(C(=O)C[C@@H](C)c9ccccc9)CC8)c(=O)c7nn6C)cc5)C4)CC3)no2)C(C)C)cc1` ? 35

Similarly, `Cc1ncsc1-c1ccc([C@H](C)NC(=O)[C@@H]2C[C@@H](O)CN2C(=O)[C@@H](NC(=O)CCCCCCCCCCNCc2ccc(-c3c4ncn(CC5(O)CCN(C(=O)C[C@@H](C)c6ccccc6)CC5)c(=O)c4nn3C)cc2)C(C)(C)C)cc1` ? 30.1

Similarly, `Cc1ncsc1-c1ccc([C@H](C)NC(=O)[C@@H]2C[C@@H](O)CN2C(=O)[C@@H](NC(=O)CCOCCOCCOCCNCc2ccc(-c3c4ncn(CC5(O)CCN(C(=O)C[C@@H](C)c6ccccc6)CC5)c(=O)c4nn3C)cc2)C(C)(C)C)cc1` ? 26.1

Similarly, `Cc1ncsc1-c1ccc([C@H](C)NC(=O)[C@@H]2C[C@@H](O)CN2C(=O)[C@@H](c2cc(N3CCC(CN4CCC(NCc5ccc(-c6c7ncn(CC8(O)CCN(C(=O)C[C@@H](C)c9ccccc9)CC8)c(=O)c7nn6C)cc5)CC4)CC3)no2)C(C)C)cc1` ? 22.2

Similarly, `Cc1ncsc1-c1ccc([C@H](C)NC(=O)[C@@H]2C[C@@H](O)CN2C(=O)[C@@H](NC(=O)CCOCCOCCOCCOCCNCc2ccc(-c3c4ncn(CC5(O)CCN(C(=O)C[C@@H](C)c6ccccc6)CC5)c(=O)c4nn3C)cc2)C(C)(C)C)cc1` ? 13

Similarly, `Cc1ncsc1-c1ccc([C@H](C)NC(=O)[C@@H]2C[C@@H](O)CN2C(=O)[C@@H](NC(=O)CCOCCOCCNCc2ccc(-c3c4ncn(CC5(O)CCN(C(=O)C[C@@H](C)c6ccccc6)CC5)c(=O)c4nn3C)cc2)C(C)(C)C)cc1` ? 12.8

Similarly, `Cc1ncsc1-c1ccc([C@H](C)NC(=O)[C@@H]2C[C@@H](O)CN2C(=O)[C@@H](c2cc(N3CCC(CNCc4ccc(-c5c6ncn(CC7(O)CCN(C(=O)C[C@@H](C)c8ccccc8)CC7)c(=O)c6nn5C)cc4)CC3)no2)C(C)C)cc1` ? 69.5

Similarly, `Cc1ncsc1-c1ccc([C@H](C)NC(=O)[C@@H]2C[C@@H](O)CN2C(=O)[C@@H](c2cc(N3CCC(CN4CCC(CNCc5ccc(-c6c7ncn(CC8(O)CCN(C(=O)C[C@@H](C)c9ccccc9)CC8)c(=O)c7nn6C)cc5)CC4)CC3)no2)C(C)C)cc1` ? 50.8

Similarly, `Cc1ncsc1-c1ccc([C@H](C)NC(=O)[C@@H]2C[C@@H](O)CN2C(=O)[C@@H](c2cc(N3CCC(N4CCC(NCc5ccc(-c6c7ncn(CC8(O)CCN(C(=O)C[C@@H](C)c9ccccc9)CC8)c(=O)c7nn6C)cc5)CC4)CC3)no2)C(C)C)cc1` ? 25.6

Similarly, `Cc1ncsc1-c1ccc([C@H](C)NC(=O)[C@@H]2C[C@@H](O)CN2C(=O)[C@@H](NC(=O)CCCCCCCCNCc2ccc(-c3c4ncn(CC5(O)CCN(C(=O)C[C@@H](C)c6ccccc6)CC5)c(=O)c4nn3C)cc2)C(C)(C)C)cc1` ? 26.1

Similarly, `Cc1ncsc1-c1ccc([C@H](C)NC(=O)[C@@H]2C[C@@H](O)CN2C(=O)[C@@H](NC(=O)CCCCCCCCCNCc2ccc(-c3c4ncn(CC5(O)CCN(C(=O)C[C@@H](C)c6ccccc6)CC5)c(=O)c4nn3C)cc2)C(C)(C)C)cc1` ? 29.2

Similarly, `Cc1ncsc1-c1ccc([C@H](C)NC(=O)[C@@H]2C[C@@H](O)CN2C(=O)[C@@H](c2cc(N3CCN(Cc4ccc(-c5c6ncn(CC7(O)CCN(C(=O)C[C@@H](C)c8ccccc8)CC7)c(=O)c6nn5C)cc4)CC3)no2)C(C)C)cc1` ? 91.6
